tested on: MCF7 breast; assay: NCI tumour cell line growth inhibition, 48 h
In this section we review reported GI50 values for a set of molecules.

// below: answered molecules
Structure Smiles | Subject Of Test | GI50
Cc1nn2c(/C=C3/C(=O)Nc4ccccc43)c(-c3ccc(Cl)cc3)nc2s1 | MCF7 breast | 17.1 µM
Cc1c(Cl)cccc1NC(=O)c1sc2nc3c(cc2c1N)CCCCCC3 | MCF7 breast | 0.149 µM
Fc1ccc(-c2nnc3sc(-c4cccc(Cl)c4)nn23)cc1Cl | MCF7 breast | > 100 µM
O=C(Nc1ccc(Nc2ccncc2)cc1)c1ccc(Nc2ccnc3ccc([N+](=O)[O-])cc23)cc1 | MCF7 breast | > 100 µM

Here is the next item to consider.
QUERY: Find the recorded GI50 belonging to CCc1nc2ccc(Cc3ccc(C(=O)NO)cc3)cc2c(=O)n1CCc1ccccc1 and report it.
RESULT: 1.34 µM
